Tgt: Carbonic anhydrase 9 (Homo sapiens, UniProt Q16790)
Assay Name: Inhibition of human CA9 pre-incubated for 15 mins to 24 hrs measured after 6 hrs by phenol red-based stopped-flow CO2 hydrase assay
pKi: −log10 of the molar value.
Reported values of pKi for individual entries

Molecule	Comparison Sign	pKi
Cc1cc(C)oc(=S)c1	=	5.02
O=C1C=CCCO1	=	5.87
O=C(O)/C=C/c1ccccc1O	<	4.00
COC1=CC(=O)OC1	=	5.47
S=c1cccco1	=	5.13
O=c1cccco1	=	5.80
CC1CCC(=O)O1 (stereo not drawn)	=	6.04
O=C1CCCCO1	=	5.44

---

Tgt: Carbonic anhydrase 9 (Homo sapiens)
Assay Name: Inhibition of human CA9 pre-incubated for 15 mins to 24 hrs measured after 15 mins by phenol red-based stopped-flow CO2 hydrase assay
pKi: −log10 of the molar value.

Line Notation	Tgt	pKi
O=C(O)/C=C/CCO	Carbonic anhydrase 9 (Homo sapiens)	5.94

---

Tgt: UniProt:P00915
Sequence (P00915 whole entry): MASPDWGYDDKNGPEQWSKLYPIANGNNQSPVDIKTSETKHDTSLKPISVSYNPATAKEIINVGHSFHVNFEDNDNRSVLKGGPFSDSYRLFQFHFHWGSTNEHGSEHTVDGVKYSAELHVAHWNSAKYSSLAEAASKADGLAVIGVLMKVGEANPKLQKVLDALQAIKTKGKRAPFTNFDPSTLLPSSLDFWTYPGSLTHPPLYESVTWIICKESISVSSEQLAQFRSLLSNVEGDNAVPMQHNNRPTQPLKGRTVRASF
Assay Name: Inhibition of human CA1 pre-incubated for 15 mins to 24 hrs measured after 6 hrs by phenol red-based stopped-flow CO2 hydrase assay

Line Notation	Ki, µM
O=C(O)/C=C/c1ccccc1O	3.4

---

Tgt: Carbonic anhydrase 2 (Homo sapiens, UniProt P00918)
Assay Name: Inhibition of human CA2 pre-incubated for 15 mins to 24 hrs measured after 6 hrs by phenol red-based stopped-flow CO2 hydrase assay
Measured Property: Ki

Molecule	Recorded Measurement
CC1CCC(=O)O1 (centres undefined)	> 100 µM
S=c1cccco1	> 100 µM
COC1=CC(=O)OC1	> 100 µM
Cc1cc(C)oc(=S)c1	> 100 µM
Cc1cc(C)oc(=O)c1	> 100 µM
O=c1cccco1	> 100 µM
O=C1C=CCO1	> 100 µM
O=C1C=CCCO1	> 100 µM
O=C1CCCCO1	> 100 µM

---

Tgt: Carbonic anhydrase 2 (Homo sapiens)
Assay Name: Inhibition of human CA2 pre-incubated for 15 mins to 24 hrs measured after 15 mins by phenol red-based stopped-flow CO2 hydrase assay
pKi: −log10 of the molar value.

Line Notation	pKi
O=C(O)/C=C/CCO	< 4.00

// provenance: ChEMBL document CHEMBL1932973
